target: 4'-phosphopantetheinyl transferase ffp (Bacillus subtilis); assay: qHTS Assay for Inhibitors of Bacillus subtilis Sfp phosphopantetheinyl transferase (PPTase); settings: Biochemical Sfp PPTase activity;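 also: the enzyme is Sfp with the accession as filed and its product quenches rhodamine fluorescence; 0% = enzyme reaction without inhibitor and -100% = no enzyme wells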
Among all 310,000 compounds or so, about 11,000 (3.5%) were called active. Inconclusive results (about 4%) are left out. For the sample, actives were picked, then their nearest neighbours and some compounds at random.
VALUE_KIND: largest response in the series, negative = inhibition (%)
Numbers only; they are read as %.

COMPOUND	VALUE_OBSERVED
COc1ccc2c(c1)N(C)/C(=C1/SC(=S)N(NC(C)=O)C1=O)S2	-12.7
COCn1c(C(O)c2ccccc2)cc2ccccc21 (stereo not given)	9.58
CC(=O)Oc1c2c(c3c(c1CC=C(C)C)O[C@@]14C(=CC5CC1C(C)(C)OC4(C/C=C(\C)C(=O)O)C5=O)C3=O)OC(C)(CCC=C(C)C)C=C2 (stereo not given in full)	-62.7
COC(=O)C(NS(=O)(=O)c1ccc(F)cc1)c1ccccc1 (stereo not given)	16.1
COC(=O)C1CCN(C(=O)c2ccc3oc(Cc4ccc(Cl)cc4)nc3c2)CC1	16.5

Identify the measured largest response in the series, negative = inhibition of CCOC(=O)C1=NOC(Cn2cc(C(C)=O)c(=O)[nH]c2=O)C1 (stereo not given) for 4'-phosphopantetheinyl transferase ffp (Bacillus subtilis).
15.9

Can you look up largest response in the series, negative = inhibition on 4'-phosphopantetheinyl transferase ffp (Bacillus subtilis) for `Cc1ccc(NC(=S)Nc2ccc(F)cc2)cc1` ?
5.93

Request - read-out largest response in the series, negative = inhibition | tested on 4'-phosphopantetheinyl transferase ffp (Bacillus subtilis) | compound `CSc1ncccc1C(=O)Nc1ccc(C)cn1`
10.7

Recall the recorded largest response in the series, negative = inhibition for `COc1cccc([C@@H]2Oc3ccc(Br)cc3C(=O)[C@H]2OC(=O)NCCc2ccc(OC)c(OC)c2)c1` with 4'-phosphopantetheinyl transferase ffp (Bacillus subtilis) and state it.
-29.3

Enter reported largest response in the series, negative = inhibition observed with 4'-phosphopantetheinyl transferase ffp (Bacillus subtilis) for `CC(=O)Nc1cccc(NC(=O)CSc2nccn2Cc2ccc(F)cc2)c1`
11.3

###

molecular target: 4'-phosphopantetheinyl transferase ffp (Bacillus subtilis) (UniProt Q9F4F7); experiment: qHTS Assay for Inhibitors of Bacillus subtilis Sfp phosphopantetheinyl transferase (PPTase); details: Biochemical Sfp PPTase activity;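 also: the enzyme is Sfp with the accession as filed and its product quenches rhodamine fluorescence; 0% = enzyme reaction without inhibitor and -100% = no enzyme wells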
Among all 310,000 compounds or so, about 11,000 (3.5%) were called active. Not shown: some 4% with an inconclusive outcome. The full list was thinned out, with actives kept by preference.
VALUE_KIND: largest response in the series, negative = inhibition (%)
Numeric answer only, unit % assumed.

Sample answers from the record:
MOLECULE	UNIT_NAME	VALUE_OBSERVED
O=C(NCCc1cccc(F)c1)C1CCCN(c2nc3ccccc3s2)C1 (configuration not stated)	%	-6.45
Cc1ccc(NS(=O)(=O)c2ccc(C)c(NC(=O)COc3ccc4ccccc4c3)c2)c(C)c1	%	-28.6
COc1ccc(Cl)cc1NS(=O)(=O)c1cccc(C(=O)NCC2CCCO2)c1 (configuration not stated)	%	12.9
CCOc1cccc(/C=N/NC(=S)NCCN2CCOCC2)c1O	%	9.81
Cc1ccc2c(c1)N(CC(=O)N1CCCC(C)C1)C(=O)CO2 (configuration not stated)	%	5.13

Then there is this molecule:
Checklist item: largest response in the series, negative = inhibition tested on 4'-phosphopantetheinyl transferase ffp (Bacillus subtilis) (UniProt Q9F4F7), entry `Cc1ccc(C(=O)CNc2ccc(F)cc2)cc1` , value?
-8.3

###

Measured largest response in the series, negative = inhibition by item
molecular target: 4'-phosphopantetheinyl transferase ffp (Bacillus subtilis) (UniProt Q9F4F7); assay: qHTS Assay for Inhibitors of Bacillus subtilis Sfp phosphopantetheinyl transferase (PPTase); settings: Biochemical Sfp PPTase activity;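 also: the enzyme is Sfp with the accession as filed and its product quenches rhodamine fluorescence; 0% = enzyme reaction without inhibitor and -100% = no enzyme wells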
Out of some 310,000 compounds screened, about 11,000 (3.5%) were called active. Another 4% or so got no clear call; they are omitted. The list comes from a sample in which actives are over-represented; it also holds close analogues and randomly drawn compounds.
Could you give me the number in %? Just the number is fine.

COMPOUND	VALUE_OBSERVED
CC(C)C[C@@H](COc1ccccc1)N1CCN(CC(C)C)CCC1=O	3.76
COC(=O)C1=C(C(=O)OC)[C@@H]2N(C)c3ccccc3[C@@]23C[C@@H](C(=O)OC)N(S(=O)(=O)c2ccc(Br)cc2)C3=N1	14

Record request: largest response in the series, negative = inhibition value, item `CCOc1ccc(N(CC(=O)Nc2ccccc2F)S(=O)(=O)c2c(C)[nH]c(=O)[nH]c2=O)cc1`
9.89

What does the data say about its largest response in the series, negative = inhibition? Entry: O=C(NC1CCCC1)C(c1ccco1)N(C(=O)c1ccco1)c1ccc(F)cc1 (configuration not stated)
20.8

What largest response in the series, negative = inhibition value was documented for this compound, `CC(C)[C@H](NC(=O)N1CCn2c1nc1ccccc12)C(=O)NCCc1ccccc1` ?
3.48

Please report the recorded largest response in the series, negative = inhibition for `CCNc1nc(-c2cc3ccccc3o2)cs1` .
-14.8

Param item = `O=C(CSc1ncccn1)NCCc1ccccc1` ; retrieve measured largest response in the series, negative = inhibition.
18.5

# input compound: `CCOC(=O)C1CCN(S(=O)(=O)c2c(C)noc2C)CC1` ; wanted: its largest response in the series, negative = inhibition
0.623

What value of largest response in the series, negative = inhibition has been reported for the following compound? `S=C(NCCc1ccccc1)Nc1ccccc1`
-0.65

So what does the record say about largest response in the series, negative = inhibition for `O=C(CN1C(=O)COc2ccc(Cl)cc21)Nc1ccc(N2CCOCC2)cc1` ?
9.73

Look up largest response in the series, negative = inhibition for this compound: `Cc1cc(C)c([N+](=O)[O-])cc1-c1ccc(/C=N/NC(=O)c2nonc2N)o1`
-8.88

May I ask what largest response in the series, negative = inhibition has been recorded for C=CCn1c(SCC(=O)NCC2CCCO2)nc2sc(C)c(C)c2c1=O (configuration not stated) ?
13.7

Endpoint output: largest response in the series, negative = inhibition of `CSc1nccc(NC(=O)c2ccc(C(C)(C)C)cc2)n1` . Value?
-8.43

Item under review: `COc1ccc(-n2c(-c3ccc(OC)c(OC)c3)n[nH]c2=S)cc1` . Reported largest response in the series, negative = inhibition?
-14.3

What measured largest response in the series, negative = inhibition goes with `O=C(CN1CCOCC1)N/N=C/c1ccc(-c2ccc(Br)cc2)o1` ?
-29.3

Sample `CCOC(=O)c1ccc(NC(=O)Cc2cccs2)cc1` — what was its largest response in the series, negative = inhibition?
0.409

Field request: largest response in the series, negative = inhibition | item: `COc1ccc(C(=O)CCC(=O)Nc2ccc(Cl)cc2)cc1`
9.46

Could you share which largest response in the series, negative = inhibition value was measured for CC(OC(=O)CN1C(=O)COc2ccccc21)C(=O)NCc1ccc(F)cc1 (configuration not stated) ?
16.7

Consider the compound `CN(CC(=O)Nc1ccc(Cl)cc1)C(=O)CNC(=O)c1ccc2ccccc2c1` and give its measured largest response in the series, negative = inhibition.
1.11

GET /values?readout=largest response in the series, negative = inhibition&item= `Clc1cccc(CN2COc3c(cc(Cl)c4cccnc34)C2)c1`
-2.55

Suppose we examine the compound CSCCC(NS(=O)(=O)c1ccc(C)cc1)C(=O)NCCc1c[nH]c2ccccc12 (configuration not stated) ; what largest response in the series, negative = inhibition value has been reported?
6.95

Requested field: largest response in the series, negative = inhibition. Item: C=CCn1c(SCc2c(C)noc2C)nc2sc3c(c2c1=O)CCC(C)C3 (configuration not stated)
-23.8

###

The following compounds are listed with their measured largest response in the series, negative = inhibition values.
target: 4'-phosphopantetheinyl transferase ffp (Bacillus subtilis) (UniProt Q9F4F7); test: qHTS Assay for Inhibitors of Bacillus subtilis Sfp phosphopantetheinyl transferase (PPTase); conditions: Biochemical Sfp PPTase activity;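 also: the enzyme is Sfp with the accession as filed and its product quenches rhodamine fluorescence; 0% = enzyme reaction without inhibitor and -100% = no enzyme wells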
Hit rate of the full screen: of about 310,000 compounds, about 11,000 (3.5%) were called active. About 4% were inconclusive and are not listed. For the sample, actives were picked, then their nearest neighbours and some compounds at random.
Just the number please, in %, no unit attached.

Some compounds with known largest response in the series, negative = inhibition results, for comparison:
COMPOUND	UNIT_NAME	VALUE_OBSERVED
COc1ccccc1C(=O)Nn1cnnc1	%	6.61
CC(C)OC(=O)c1cc(NC(=O)C2C3CCC(O3)C2C(=O)O)cc(C(=O)OC(C)C)c1 (stereo unspecified)	%	12.5
CCOCCCNC(=S)Nc1ccc2nc(N3CCN(CC)CC3)cc(C)c2c1	%	10.7

// query largest response in the series, negative = inhibition value for entry CC(C)(C)c1ccc(C(CC(=O)O)NS(=O)(=O)Cc2ccccc2)cc1 (stereo unspecified)
-0.492

Suppose we examine the compound `O=C(Nc1ccncc1)Nc1ccc(F)cc1` ; what largest response in the series, negative = inhibition value has been reported?
14.5

If you can, please state the reported largest response in the series, negative = inhibition value of `CCOC(=O)c1ccc(NC(=O)CNC(=O)c2ccco2)cc1` .
7.8

Tell me the measured largest response in the series, negative = inhibition of `Cc1ccc(N2CCN(C(=O)c3cccs3)CC2)c(C)c1` , please.
-4.64

What does the data say about its largest response in the series, negative = inhibition? Entry: `COc1ccc2[nH]c(C(=O)N3CCN(C)CC3)c(C)c2c1`
10.8

# lookup: largest response in the series, negative = inhibition of COc1ccc(C(=O)NN2C(=O)C3C(c4ccccc4)C=CC(c4ccccc4)C3C2=O)cc1 (stereo unspecified)
33.4

Which value of largest response in the series, negative = inhibition has been reported for O=C(NN1C(=O)C2C3C=CC(C4CC34)C2C1=O)c1ccc(Cl)cc1 (stereo unspecified) in the records?
27.6

Please give the measured largest response in the series, negative = inhibition for this compound: `Cc1ccc(C(=O)O/N=C(\N)c2ccccn2)cc1Cl`
2.02
